target: Fibrinogen binding to human thrombocytes; experiment: Fibrinogen binding to human thrombocytes; settings: 125I fibrinogen; gel-filtered human platelets; ADP; 20 minutes at ambient temperature; read-out: Fibrinogen binding test IC50
Structures can show the parent of a compound that is named as a salt.
In this scheme, each record receives a class according to its IC50; the ranges are lower = under 0.6 µM, middle = from 0.6 µM up to 6 µM, upper = 6 µM and over

• N=C(N)c1ccc(-c2ccc(CC(=O)N3CCC(C(=O)O)CC3)cc2)cc1 [1(45), hydrochloride] = lower

## Task # bin label for N=C(N)c1ccc(-c2ccc(C(=O)NCCCCC(=O)O)cc2)cc1 [1(65), hydrochloride]
## Result lower

## Task Input N=C(N)c1ccc(-c2ccc(C(=O)N3CCC(C(=O)O)CC3)cc2)cc1 [1(74), hydrochloride] ; output its category
## Result middle

## Task Into which category would you place COC(=O)CCCCNC(=O)c1ccc(-c2ccc(C(=N)N)cc2)cc1 [6(72), hydrochloride] ?
## Result upper

## Task Which class holds COC(=O)CC1CCCN(C(=O)Cc2ccc(-c3ccc(C(=N)N)cc3)cc2)C1 (stereo not drawn) [6(58), hydrochloride] ?
## Result upper

## Task Could you tell me which band COC(=O)C1CCC(NC(=O)c2ccc(-c3ccc(C(=N)N)cc3)cc2)CC1 (stereo not drawn) [6(87), hydrochloride] belongs to?
## Result middle

## Task Hi there! Could you help me figure out the category for N=C(N)c1ccc(-c2ccc(C(=O)N3CCN(CC(=O)O)CC3)cc2)cc1 [1(67), hydrochloride] please?
## Result lower

## Task Class? Entry: `N=C(N)c1ccc(-c2ccc(OCCCCC(=O)O)cc2)cc1`
## Result lower

## Task Please let me know in which category the item N=C(N)c1ccc(-c2ccc(OCC(=O)N3CCCC(C(=O)O)C3)cc2)cc1 (stereo not drawn) belongs.
## Result middle

## Task Hey, which category is COC(=O)CCN1CCN(C(=O)c2ccc(-c3ccc(C(=N)N)cc3)cc2)CC1 [6(75), di hydrochloride] in, do you know?
## Result upper

## Task Could you tell me which band Cl.N=C(N)c1ccc(-c2ccc(C(=O)N3CCC(CC(=O)O)CC3)cc2)cc1 [Example 1(39), hydrochloride] belongs to?
## Result lower

## Task Where would `COC(=O)CCCCCOc1ccc(-c2ccc(C(=N)N)cc2)cc1` land among the classes by reported IC50?
## Result lower

## Task Tag the class for N=C(N)c1ccc(-c2ccc(C(=O)NCC(N)=O)cc2)cc1 [6(86), hydrochloride]
## Result middle

## Task Where would COc1ccc(CCNC(=O)C(CC(=O)O)NC(=O)CNC(=O)c2ccc(-c3ccc(C(=N)N)cc3)cc2)cc1 (stereo not drawn) [Example 3, hydrochloride] land among the classes by reported IC50?
## Result middle

## Task Please classify: COC(=O)CN1CCN(C(=O)c2ccc(-c3ccc(C(=N)N)cc3)cc2)CC1 [6(74), dihydrochloride]
## Result upper

## Task Band for the recorded IC50 of `N=C(N)c1ccc(-c2ccc(OCC(=O)NCC(=O)O)cc2)cc1` ?
## Result middle

## Task Kindly state the category for this compound: `N=C(N)c1ccc(-c2ccc(OCCCC(=O)O)cc2)cc1`
## Result upper

## Task # bin label for COC(=O)Cc1cccc(NC(=O)c2ccc(-c3ccc(C(=N)N)cc3)cc2)c1 [6(4), hydrochloride]
## Result upper

## Task Class (by measured IC50) for NCc1ccc(-c2ccc(C(=O)N3CCC(CC(=O)O)CC3)cc2)cc1 [10(1), hydrochloride]
## Result middle

* * *

target: Fibrinogen binding to human thrombocytes; test: Fibrinogen binding to human thrombocytes; conditions: 125I fibrinogen; gel-filtered human platelets; ADP; 20 minutes at ambient temperature; read-out: Fibrinogen binding test IC50
Structures can show the parent of a compound that is named as a salt.
readout_label: IC50 (µM)
Report only the number, with the unit µM understood.

* COC(=O)CCc1cccc(NC(=O)Cc2ccc(-c3ccc(C(=N)N)cc3)cc2)c1 [6(47), hydrochloride] | 4.9
* COC(=O)C1CCN(C(=O)c2ccc(-c3ccc(C(=N)N)cc3)cc2)CC1 | 25

## Task Look up IC50 with Fibrinogen binding to human thrombocytes for this molecule: `N=C(N)c1ccc(-c2ccc(NS(=O)(=O)NCCC(=O)O)cc2)cc1`
## Result 3.1

## Task Write down the reported IC50 of `COC(=O)CCCOc1ccc(-c2ccc(C(=N)N)cc2)cc1` , test system: Fibrinogen binding to human thrombocytes.
## Result 5.2

## Task // fetch Fibrinogen binding to human thrombocytes IC50 for COC(=O)C1CCN(C(=O)Cc2ccc(-c3ccc(C(=N)N)cc3)cc2)CC1 [6(56), hydrochloride]
## Result 5.9

* * *

biological target: Fibrinogen binding to human thrombocytes; assay: Fibrinogen binding to human thrombocytes; conditions: 125I fibrinogen; gel-filtered human platelets; ADP; 20 minutes at ambient temperature; read-out: Fibrinogen binding test IC50
Structures can show the parent of a compound that is named as a salt.
readout_label: IC50 (nM)
Give just the numeric value; nM need not be written.

# example entries with known answers
* COC(=O)C1CCCN(C(=O)COc2ccc(-c3ccc(C(=N)N)cc3)cc2)C1 (stereo not drawn) [6(49), hydrochloride] | 32000
* COC(=O)C1CCN(C(=O)COc2ccc(-c3ccc(C(=N)N)cc3)cc2)CC1 [6(48), hydrochloride] | 25000
* N=C(N)c1ccc(-c2ccc(CC(=O)NCCC(=O)O)cc2)cc1 | 290
* COc1ccc(CCNC(=O)C(CC(=O)O)NC(=O)Cc2ccc(-c3ccc(C(=N)N)cc3)cc2)cc1.Cl (stereo not drawn) [2(11), hydrochloride] | 360

## Task What does the record list as IC50 for `N=C(N)c1ccc(-c2ccc(OCC(=O)N3CCC(C(=O)O)CC3)cc2)cc1` ?
## Result 330

## Task Endpoint output: IC50 of COC(=O)CCCC(=O)Nc1ccc(-c2ccc(C(=N)N)cc2)cc1 [6(1), hydrochloride] . Value?
## Result 5600

## Task Looking for the measured IC50 of COC(=O)CC1CCN(C(=O)c2ccc(-c3ccc(C(=N)N)cc3)cc2)CC1 [6(50), hydrochloride] , can you help?
## Result 340

## Task So what does the record say about IC50 for N=C(N)c1ccc(-c2ccc(C(=O)N3CCCC(CC(=O)O)C3)cc2)cc1 (stereo not drawn) [1(41), hydrochloride] ?
## Result 520

## Task Query (molecule): COC(=O)CNC(=O)COc1ccc(-c2ccc(C(=N)N)cc2)cc1 [6(2), hydrochloride] ; field requested: IC50
## Result 14000
